- test method notes: Solubility data of compounds in water over the pH range
- Format: physicochemical
- reported conditions: pH 6.29, pH 6.29; read-out: Conc (solubility in water)
Where a SMILES comes first, the peptide text is derived from it. Bridges are numbered along the chain shown (N, C = ends). [ ]: non-standard residue; d: D form. The star is where a group is joined. Palmitoyl(16-(5-tetrazolyl)) = O=C(CCCCCCCCCCCCCCCc1nnn[nH]1)*; Lys(CH2CO2H)2 = N[C@@H](CCCCN(CC(=O)O)CC(=O)O)C(=O)O; Hyp = O=C(O)[C@@H]1C[C@@H](O)CN1; Nle = CCCC[C@H](N)C(=O)O; AEEA = NCCOCCOCC(=O)O
recorded metric: solubility at 3 days (µM)
Please respond with the number in µM and leave the unit unwritten.

Query CCCC[C@H](NC(=O)[C@H](CCCCN(CC(=O)O)CC(=O)O)NC(=O)[C@H](CO)NC(=O)[C@H](CCC(N)=O)NC(=O)[C@H](CO)NC(=O)CNC(=O)COCCOCCNC(=O)CCCCCCCCCCCCCCCc1nnn[nH]1)C(=O)N[C@H]1CCC(=O)NCCCC[C@@H](C(N)=O)NC(=O)[C@H](Cc2c[nH]c3ccccc23)NC(=O)[C@H](CCCNC(=N)N)NC(=O)[C@@H](Cc2ccccc2)NC(=O)[C@@H]2C[C@@H](O)CN2C1=O [Example 5] ({Palmitoyl(16-(5-tetrazolyl))-AEEA}-GSQS[Lys(CH2CO2H)2][Nle]E[Hyp][dF]RWK-NH2; lactam 7-12) yields solubility at 3 days of 239

FYI, the data here is from patent US20100173835A1.
